system: Sko1 (UniProt Q02100)
Sequence: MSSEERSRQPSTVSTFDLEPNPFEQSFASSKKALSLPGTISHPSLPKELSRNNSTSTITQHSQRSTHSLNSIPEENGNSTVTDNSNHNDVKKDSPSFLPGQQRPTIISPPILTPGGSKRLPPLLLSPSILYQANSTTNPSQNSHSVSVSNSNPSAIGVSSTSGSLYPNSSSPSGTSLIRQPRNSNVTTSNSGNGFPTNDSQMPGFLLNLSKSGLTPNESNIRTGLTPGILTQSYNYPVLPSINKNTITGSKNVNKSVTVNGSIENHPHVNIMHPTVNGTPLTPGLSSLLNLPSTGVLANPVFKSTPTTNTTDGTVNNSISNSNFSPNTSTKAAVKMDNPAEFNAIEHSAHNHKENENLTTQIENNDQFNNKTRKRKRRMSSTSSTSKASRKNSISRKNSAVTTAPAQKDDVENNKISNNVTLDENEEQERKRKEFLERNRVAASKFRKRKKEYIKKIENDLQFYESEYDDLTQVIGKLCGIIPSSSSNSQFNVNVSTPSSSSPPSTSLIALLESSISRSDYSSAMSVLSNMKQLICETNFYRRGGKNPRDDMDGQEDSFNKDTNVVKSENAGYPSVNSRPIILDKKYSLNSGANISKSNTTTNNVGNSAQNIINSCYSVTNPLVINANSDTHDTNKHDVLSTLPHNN
method.summary: PBM E-score (8-mer binding enrichment) (E-score (-0.5 to 0.5)); higher = stronger / more preferred TF binding
test.settings: protein concentration: 200 nM; construct: GST-full length
The full ranking holds about 33,000 sequences; the median of “E-score (-0.5 to 0.5)” is about -0.032, and the highest 2% start at about 0.36. This excerpt belongs to a sample that is enriched for the highest values.
Please use yes (1) whenever PBM E-score is not below -0.1, and no (0) whenever it is.

{"record.sequence": "GTCTGCAC", "category": "no (0)"}
{"record.sequence": "AAGTAGAT", "category": "yes (1)"}
{"record.sequence": "GCGTAGAA", "category": "yes (1)"}
{"record.sequence": "GCCTGTCA", "category": "no (0)"}
{"record.sequence": "CACGCCGG", "category": "no (0)"}
{"record.sequence": "AGCGCCGC", "category": "no (0)"}
{"record.sequence": "CGGACGTA", "category": "yes (1)"}
{"record.sequence": "AGTAGTCC", "category": "yes (1)"}
{"record.sequence": "ACTTTCAA", "category": "yes (1)"}
{"record.sequence": "ACTTATTA", "category": "yes (1)"}
{"record.sequence": "CAAGAGCA", "category": "yes (1)"}
{"record.sequence": "ACGTAGAT", "category": "yes (1)"}
{"record.sequence": "ACAGGTTC", "category": "no (0)"}

* * *

The entries below come with measured PBM E-score values attached.
system: Sko1 (UniProt Q02100)
Sequence: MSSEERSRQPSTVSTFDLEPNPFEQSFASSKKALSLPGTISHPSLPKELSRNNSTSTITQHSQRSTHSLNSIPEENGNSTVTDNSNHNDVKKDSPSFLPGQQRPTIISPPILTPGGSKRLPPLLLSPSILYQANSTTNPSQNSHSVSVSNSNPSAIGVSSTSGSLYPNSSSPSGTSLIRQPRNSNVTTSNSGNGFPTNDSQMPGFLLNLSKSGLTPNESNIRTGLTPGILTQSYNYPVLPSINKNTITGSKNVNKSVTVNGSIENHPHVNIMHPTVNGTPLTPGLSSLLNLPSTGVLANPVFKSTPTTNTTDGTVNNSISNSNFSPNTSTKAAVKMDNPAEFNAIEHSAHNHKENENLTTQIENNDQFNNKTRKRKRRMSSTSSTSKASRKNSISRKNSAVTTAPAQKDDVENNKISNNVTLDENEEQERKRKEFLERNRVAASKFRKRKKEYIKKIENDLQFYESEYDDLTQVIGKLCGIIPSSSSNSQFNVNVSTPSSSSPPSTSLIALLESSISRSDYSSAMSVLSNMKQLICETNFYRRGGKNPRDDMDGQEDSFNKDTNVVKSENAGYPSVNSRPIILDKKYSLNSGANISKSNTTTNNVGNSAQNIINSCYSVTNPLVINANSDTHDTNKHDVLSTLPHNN
method.summary: PBM E-score (8-mer binding enrichment) (E-score (-0.5 to 0.5)); higher = stronger / more preferred TF binding
test.settings: protein concentration: 200 nM; construct: GST-full length
The full ranking holds about 33,000 sequences; the median of “E-score (-0.5 to 0.5)” is about -0.032, and the highest 2% start at about 0.36. Only a selection was taken, and the highest values are over-represented in it overall.
experimental.readout: PBM E-score

{"record.sequence": "ACCGCCGT", "assay.value": -0.264}
{"record.sequence": "AATCGTCC", "assay.value": 0.0937}
{"record.sequence": "TCACGTAA", "assay.value": 0.472}
{"record.sequence": "CAGTGACA", "assay.value": 0.0692}
{"record.sequence": "TCACGTGA", "assay.value": 0.336}
{"record.sequence": "ACCTTGTG", "assay.value": -0.0718}
{"record.sequence": "ACCTCCAA", "assay.value": -0.189}
{"record.sequence": "AAGTGACT", "assay.value": -0.0253}
{"record.sequence": "ACGATAGT", "assay.value": 0.295}
{"record.sequence": "AATACGCT", "assay.value": 0.186}
{"record.sequence": "CGAGCCTC", "assay.value": -0.324}
{"record.sequence": "GGACACTA", "assay.value": -0.125}
{"record.sequence": "CATCGTCA", "assay.value": 0.395}
{"record.sequence": "CATCGTCG", "assay.value": -0.16}
{"record.sequence": "CATTGACC", "assay.value": 0.114}
{"record.sequence": "CATACGCA", "assay.value": 0.392}
{"record.sequence": "GCACCTGC", "assay.value": -0.202}
{"record.sequence": "CGCGTAGA", "assay.value": 0.0669}
{"record.sequence": "CCCGTAGG", "assay.value": -0.194}
{"record.sequence": "CCCAGCGC", "assay.value": -0.229}
{"record.sequence": "AGCCGGAG", "assay.value": 0.0107}
{"record.sequence": "CGTTCGAG", "assay.value": 0.189}
{"record.sequence": "GAAAAAAC", "assay.value": 0.201}
{"record.sequence": "AACGTAGC", "assay.value": 0.349}
{"record.sequence": "CAGACCGC", "assay.value": -0.156}
{"record.sequence": "AATCGTCA", "assay.value": 0.423}
{"record.sequence": "CATTGACG", "assay.value": 0.412}
{"record.sequence": "AACGTAGA", "assay.value": 0.357}
{"record.sequence": "CATCGTCC", "assay.value": 0.0258}
{"record.sequence": "CCGTCTGC", "assay.value": -0.109}
{"record.sequence": "CAGTGACG", "assay.value": 0.408}
{"record.sequence": "TATCGTGA", "assay.value": 0.168}
{"record.sequence": "TATCGTCA", "assay.value": 0.42}
{"record.sequence": "GACGTAGC", "assay.value": 0.436}
{"record.sequence": "CTGGGCTA", "assay.value": -0.317}

Ref: the supplement of paper PMC3334620
